The origin of these recorded values is patent US9045493B2.

- subject.of.test: TANK binding kinase (TBK1) (Homo sapiens, UniProt Q9UHD2)
- Sequence (Q9UHD2 1-729): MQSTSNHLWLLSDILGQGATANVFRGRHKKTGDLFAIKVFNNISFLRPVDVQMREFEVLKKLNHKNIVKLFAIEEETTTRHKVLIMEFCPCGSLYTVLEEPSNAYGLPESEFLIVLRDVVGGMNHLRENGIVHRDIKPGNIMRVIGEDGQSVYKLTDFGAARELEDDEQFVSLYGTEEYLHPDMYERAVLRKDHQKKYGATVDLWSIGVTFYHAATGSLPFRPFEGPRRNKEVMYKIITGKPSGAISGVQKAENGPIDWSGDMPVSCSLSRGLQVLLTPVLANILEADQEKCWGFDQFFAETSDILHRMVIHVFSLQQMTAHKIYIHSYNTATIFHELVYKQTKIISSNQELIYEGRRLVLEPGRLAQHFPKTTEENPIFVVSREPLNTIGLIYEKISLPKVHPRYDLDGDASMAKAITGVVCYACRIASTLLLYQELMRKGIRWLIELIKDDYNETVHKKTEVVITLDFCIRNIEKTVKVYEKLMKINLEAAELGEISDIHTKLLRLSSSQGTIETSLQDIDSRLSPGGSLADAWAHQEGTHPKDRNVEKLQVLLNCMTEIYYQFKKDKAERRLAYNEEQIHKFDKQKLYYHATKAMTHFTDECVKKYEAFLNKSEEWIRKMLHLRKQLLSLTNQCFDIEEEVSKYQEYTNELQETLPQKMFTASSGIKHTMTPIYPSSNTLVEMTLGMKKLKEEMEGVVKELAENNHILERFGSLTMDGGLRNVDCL
- assay.comment: TBK1 enzyme assay (384-well Flashplate kinase assay)
- Assay type: biochemical
- condition.description: 10 μM ATP, 120 Min at 30° C.
pIC50: −log10 of the molar value.
property.label: pIC50

> print(dat)
                                    molecule                           subject.of.test  recorded.measurement
 1  N#Cc1cc(-c2ccnc3cc(-c4ccc(C(=O)O)cc4)oc23)ccc1OC1CCOCC1 [Compound A16a]  TANK binding kinase (TBK1) (Homo sapiens, UniProt Q9UHD2)          5.52 to 6.52
 2  N#Cc1cc(-c2ccnc3cc(-c4ccc(C(=O)N5CCOCC5)cc4F)oc23)ccc1OC1CCOCC1  TANK binding kinase (TBK1) (Homo sapiens, UniProt Q9UHD2)                > 6.52
 3  N#Cc1cc(-c2ccnc3cc(-c4cnn(C5CCNCC5)c4)oc23)ccc1OC1CCOCC1  TANK binding kinase (TBK1) (Homo sapiens, UniProt Q9UHD2)                > 6.52
 4  CN(CCO)C(=O)c1ccc(-c2cc3nccc(-c4ccc(OCC5(C)COC5)c(C#N)c4)c3o2)cc1  TANK binding kinase (TBK1) (Homo sapiens, UniProt Q9UHD2)                > 6.52
 5  N#Cc1cc(-c2ccnc3cc(-c4cnn(C5CCN(CCO)CC5)c4)sc23)ccc1OC1CCOCC1  TANK binding kinase (TBK1) (Homo sapiens, UniProt Q9UHD2)                > 6.52
 6  N#Cc1cc(-c2ccnc3cc(-c4ccc(C(=O)N5CCNCC5)cc4)oc23)ccc1OC1CCOC1 (stereo not drawn)  TANK binding kinase (TBK1) (Homo sapiens, UniProt Q9UHD2)                > 6.52
 7  COc1cc(-c2cc3nccc(-c4ccc(OC5CCOCC5)c(C#N)c4)c3o2)ccc1C(=O)NCC(N)=O  TANK binding kinase (TBK1) (Homo sapiens, UniProt Q9UHD2)                > 6.52
 8  COc1ccccc1-c1cc2nccc(-c3ccc(OC4CCOCC4)c(C#N)c3)c2o1  TANK binding kinase (TBK1) (Homo sapiens, UniProt Q9UHD2)                > 6.52
 9  COc1cc(-c2cc3nccc(-c4ccc(OC5CCOCC5)c(C#N)c4)c3o2)ccc1C(=O)NC1CCCN(C)C1 (stereo not drawn)  TANK binding kinase (TBK1) (Homo sapiens, UniProt Q9UHD2)                > 6.52
10  COc1cc(-c2cc3nccc(-c4ccc(OC5CCOCC5)c(C#N)c4)c3o2)ccc1C(=O)N1CCNC(=O)C1  TANK binding kinase (TBK1) (Homo sapiens, UniProt Q9UHD2)                > 6.52
11  CN1CCN(C(=O)c2ccc(-c3cc4nccc(-c5ccc(OCC6CC6)c(C#N)c5)c4o3)cc2)CC1  TANK binding kinase (TBK1) (Homo sapiens, UniProt Q9UHD2)                > 6.52
12  N#Cc1cc(-c2ccnc3cc(-c4ccc(C(=O)NCCc5cccnc5)cc4)oc23)ccc1OC1CCOCC1  TANK binding kinase (TBK1) (Homo sapiens, UniProt Q9UHD2)          5.52 to 6.52
13  COCCn1cc(-c2cc3nccc(-c4ccc(OC5CCOCC5)c(C#N)c4)c3o2)cn1  TANK binding kinase (TBK1) (Homo sapiens, UniProt Q9UHD2)          4.30 to 5.52
14  COc1cc(-c2cc3nccc(-c4ccc(OC5CCOCC5)c(C#N)c4)c3o2)ccc1C(=O)N(C)C1CCOCC1  TANK binding kinase (TBK1) (Homo sapiens, UniProt Q9UHD2)                > 6.52
15  N#Cc1cc(-c2ccnc3cc(-c4ccc(C(=O)N5CCNCC5)cc4)oc23)ccc1N1CCCC1  TANK binding kinase (TBK1) (Homo sapiens, UniProt Q9UHD2)                > 6.52
16  CN1CCN(C(=O)c2ccc(-c3cc4nccc(-c5ccc(OCC6(C)COC6)c(C#N)c5)c4o3)cc2)CC1  TANK binding kinase (TBK1) (Homo sapiens, UniProt Q9UHD2)                > 6.52
17  N#Cc1cc(-c2ccnc3cc(-c4cccc5[nH]cnc45)oc23)ccc1OC1CCOCC1  TANK binding kinase (TBK1) (Homo sapiens, UniProt Q9UHD2)          5.52 to 6.52
18  N#Cc1cc(-c2ccnc3cc(-c4ccc(C(=O)NCCN5CCNC5=O)cc4)oc23)ccc1OC1CCOCC1  TANK binding kinase (TBK1) (Homo sapiens, UniProt Q9UHD2)                > 6.52
19  N#Cc1cc(-c2ccnc3cc(-c4ccc(C(=O)N5CCNCC5)cc4)oc23)ccc1N1CCOCC1  TANK binding kinase (TBK1) (Homo sapiens, UniProt Q9UHD2)                > 6.52
20  COc1cc(-c2cc3nccc(-c4ccc(OC5CCOC5)c(C#N)c4)c3s2)ccc1C(=O)N1CCNCC1 (stereo not drawn)  TANK binding kinase (TBK1) (Homo sapiens, UniProt Q9UHD2)                > 6.52
21  COc1cc(-c2cc3nccc(-c4ccc(OC5CCOCC5)c(C#N)c4)c3o2)ccc1C(=O)N1CCOC(CCO)C1 (stereo not drawn)  TANK binding kinase (TBK1) (Homo sapiens, UniProt Q9UHD2)                > 6.52
22  CN(C)CCN(C)C(=O)c1ccc(-c2cc3nccc(-c4ccc(OC5CCOCC5)c(C#N)c4)c3o2)cc1  TANK binding kinase (TBK1) (Homo sapiens, UniProt Q9UHD2)                > 6.52
23  COc1cccc(-c2cc3nccc(-c4ccc(OC5CCOCC5)c(C#N)c4)c3o2)c1  TANK binding kinase (TBK1) (Homo sapiens, UniProt Q9UHD2)          5.52 to 6.52
24  N#Cc1cc(-c2ccnc3cc(-c4ccc(C(=O)NCCN5CCOCC5)cc4)oc23)ccc1OC1CCOCC1  TANK binding kinase (TBK1) (Homo sapiens, UniProt Q9UHD2)                > 6.52
25  CN(CCO)C(=O)c1ccc(-c2cc3nccc(-c4ccc(OC5CCOC5)c(C#N)c4)c3s2)cc1 (stereo not drawn)  TANK binding kinase (TBK1) (Homo sapiens, UniProt Q9UHD2)                > 6.52
26  COc1cc(-c2cc3nccc(-c4ccc(OC5CCOCC5)c(C#N)c4)c3s2)ccc1C(=O)N1CCNCC1  TANK binding kinase (TBK1) (Homo sapiens, UniProt Q9UHD2)                > 6.52
27  CCOc1ncccc1-c1cc2nccc(-c3ccc(OC4CCOCC4)c(C#N)c3)c2o1  TANK binding kinase (TBK1) (Homo sapiens, UniProt Q9UHD2)                > 6.52
